Tested on: mHTT protein
Experiment: mHTT protein assay (2B7-MW1, Mesoscale Discovery)
Type: cell-based, human
Details: GM04724 (CAG 70/20) Huntington's disease patient lymphoblast cells, 48 hours, 2B7-MW1 MSD; read-out: HTT Potency - Protein EC50 mHTT (average)
Entries and their measured EC50 follow.

Cc1ccc(-c2ccc(-c3ccc(O[C@H]4C[C@@H]5CCC[C@@H](N5)[C@H]4F)nn3)c(O)c2)nn1 (single isomer, unassigned) = 501 to 10000 nM

Prompt: Respond only with EC50 recorded for Cc1nc(-c2ccc(-c3ccc(O[C@@H]4C[C@H]5CCC[C@H](N5)[C@@H]4F)nn3)c(O)c2)co1 (single isomer, unassigned)
Response: 101 to 500 nM

Prompt: Respond only with EC50 recorded for C[C@@]12CC[C@@](C)(N1)[C@@H](F)[C@@H](Oc1ccc(-c3ccc(-c4cn[nH]c4)cc3O)nn1)C2 (single isomer, unassigned)
Response: 0.01 to 15 nM

Prompt: Respond only with EC50 recorded for Oc1cc2nccnc2cc1-c1ccc(O[C@H]2C[C@@H]3CCC[C@@H](N3)[C@H]2F)nn1 (single isomer, unassigned)
Response: 501 to 10000 nM

Prompt: Respond only with EC50 recorded for C[C@@]12CCC[C@@](C)(N1)[C@@H](F)[C@@H](Oc1ccc(-c3ccc(-c4cn[nH]c4)cc3O)nn1)C2 (single isomer, unassigned)
Response: 0.01 to 15 nM

Prompt: Respond only with EC50 recorded for Cn1ccc(=O)c2cc(O)c(-c3ccc(O[C@H]4C[C@]5(C)CCC[C@@](C)(N5)[C@H]4F)nn3)cc21 (stereo in doubt) [132-ENT2]
Response: 101 to 500 nM

Where do these numbers come from? They come from patent US12522597B2.
